Provide the reported IC50 of each item.
Target: Type-2 angiotensin II receptor (Rattus norvegicus)
Sequence (P35351 whole entry): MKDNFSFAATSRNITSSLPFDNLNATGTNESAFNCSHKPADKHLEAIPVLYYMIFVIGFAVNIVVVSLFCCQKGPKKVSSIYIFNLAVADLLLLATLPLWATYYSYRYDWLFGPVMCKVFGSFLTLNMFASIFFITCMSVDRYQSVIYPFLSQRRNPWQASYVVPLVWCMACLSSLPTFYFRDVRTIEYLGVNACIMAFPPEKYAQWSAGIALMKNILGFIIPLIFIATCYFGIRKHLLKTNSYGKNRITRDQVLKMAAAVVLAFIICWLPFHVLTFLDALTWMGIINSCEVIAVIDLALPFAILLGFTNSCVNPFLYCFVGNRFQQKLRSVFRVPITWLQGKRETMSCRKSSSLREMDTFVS
Assay: Inhibition of [125I]-[Sar1,Ile8]Ang II binding at rat angiotensin II (type 2) receptor.
Unit nM implied. Number only.

query: Quick check: IC50 of CCCc1nc(CC)c(C(=O)CCN(C(=O)c2cccnc2)c2ccccn2)n1Cc1ccc(-c2ccccc2S(=O)(=O)NC(=O)OCCC(C)C)cc1F ?
result: 0.16

query: Entry under review: CCCC(=O)N(CCC(=O)c1c(CC)nc(CCC)n1Cc1ccc(-c2ccccc2S(=O)(=O)NC(=O)OCCC(C)C)cc1)c1cccnc1 . Reported IC50?
result: 1

query: Consider the compound CCCc1nc(CC)c(C(=O)CCN(C(=O)c2cccnc2)c2cccnc2)n1Cc1ccc(-c2ccccc2S(=O)(=O)NC(=O)OCCC(C)C)cc1 and give its measured IC50.
result: 1

query: Entry under review: CCCC(=O)N(CCC(=O)c1c(CC)nc(CCC)n1Cc1ccc(-c2ccccc2S(=O)(=O)NC(=O)OCCC(C)C)cc1F)c1cccnc1 . Reported IC50?
result: 0.25

query: Consider the compound CCCCOC(=O)NS(=O)(=O)c1ccccc1-c1ccc(Cn2c(CCC)nc(CC)c2C(=O)CCN(CCCC)C(=O)c2ccccc2)c(F)c1 and give its measured IC50.
result: 10
